Items are presented alongside their recorded inhibition at 0.05 µM.
Molecular target: human ANO6 (variant 5) (Homo sapiens)
Construct: expressed in transfected cells; host or cells: Fisher rat thyroid (FRT) cells
Test: Lact C2 assay (phosphatidylserine externalization scramblase function)
Type: cell-based
Conditions: 50 nM; FRT cells expressing human ANO6; ionomycin 10 μM; read-out: % Inhibition (phosphatidylserine externalization inhibitory activity)
Description: Experimental Example 2: Lact C2 Assay (Measuring Phosphatidylserine Externalization Scramblase Function) Ionomycin (Alomonelab, cat. #I-700), DAPI (Sigma-Aldrich, cat. #D8417), paraformaldehyde (Biosesang, cat. #P2031), Lionheart FX automated fluorescence microscope (BioTek), Gen5™ software program (BioTek), and Image J analysis software program. […] Phosphatidylserine externalization inhibitory activity (%) by the compound was calculated through the following analysis method. […]

[
  {
    "CHEMICAL STRUCTURE": "Fc1cc2nc(-c3cccc(Nc4ncc(-c5cscn5)cn4)c3)[nH]c2cc1F",
    "TESTED ON": "human ANO6 (variant 5) (Homo sapiens)",
    "inhibition at 0.05 µM": "> 60%"
  },
  {
    "CHEMICAL STRUCTURE": "FC(F)Oc1ccc2nc(-c3cccc(Nc4ccc(-c5cccnn5)cc4)c3)[nH]c2c1",
    "TESTED ON": "human ANO6 (variant 5) (Homo sapiens)",
    "inhibition at 0.05 µM": "> 60%"
  },
  {
    "CHEMICAL STRUCTURE": "Clc1ccc2nc(-c3cccc(Nc4cnc(-c5ccccn5)cn4)c3)[nH]c2c1",
    "TESTED ON": "human ANO6 (variant 5) (Homo sapiens)",
    "inhibition at 0.05 µM": "30 to 60%"
  }
]

Note to self: inhibition at 0.05 µM recorded for CN(Cc1ccccc1)c1ccc2nc(-c3cccc(Nc4ccc(-c5cccnn5)cc4)c3)[nH]c2c1 was 30 to 60%

---

assay: Cell viability measurement (MTS), Calu-3 cells; assay type: cell-based; details: human, 1 μM
Items are presented alongside their recorded viability at 48 h, 1 µM.

Use the examples below as a reference point.
[
  {
    "CHEMICAL STRUCTURE": "c1cnc(-c2ccc(Nc3cccc(-c4nc5ccccc5[nH]4)c3)nc2)nc1",
    "RECORDED RESULT": "> 80%"
  },
  {
    "CHEMICAL STRUCTURE": "c1cc(Nc2ccc(C3CCCCC3)cc2)cc(-c2nc3ccccc3[nH]2)c1",
    "RECORDED RESULT": "> 80%"
  },
  {
    "CHEMICAL STRUCTURE": "Fc1ccc2nc(-c3cccc(Nc4ccc(-c5ccccn5)cn4)c3)[nH]c2c1",
    "RECORDED RESULT": "50 to 80%"
  },
  {
    "CHEMICAL STRUCTURE": "Fc1ccc2nc(-c3cccc(Nc4ncc(-c5ccccn5)cn4)c3)[nH]c2c1",
    "RECORDED RESULT": "50 to 80%"
  },
  {
    "CHEMICAL STRUCTURE": "FC(F)(F)c1ccc2nc(-c3cccc(Nc4ccc(-c5cccnn5)cc4)c3)[nH]c2c1",
    "RECORDED RESULT": "> 80%"
  },
  {
    "CHEMICAL STRUCTURE": "FC(F)(F)c1ccc2nc(-c3cccc(Nc4ccc(-c5ccccn5)cc4)c3)[nH]c2c1",
    "RECORDED RESULT": "50 to 80%"
  }
]

Next:
Note to self: viability at 48 h, 1 µM recorded for Fc1ccc2nc(-c3cccc(Nc4ccc(-c5ccccn5)cc4)c3)[nH]c2c1 was 50 to 80%

---

assay: Cell viability measurement (MTS), Calu-3 cells; format: cell-based; conditions: human, 10 μM
MEASURED ENDPOINT: viability at 48 h, 10 µM

[
  {
    "CHEMICAL STRUCTURE": "COc1ccc2nc(-c3cccc(Nc4ncc(-c5cccnn5)cn4)c3)[nH]c2c1",
    "viability at 48 h, 10 µM": "> 80%"
  },
  {
    "CHEMICAL STRUCTURE": "FC(F)(F)Oc1cc2nc(-c3cccc(Nc4ncc(-c5cccnn5)cn4)c3)[nH]c2cc1Cl",
    "viability at 48 h, 10 µM": "> 80%"
  },
  {
    "CHEMICAL STRUCTURE": "Fc1cc2[nH]c(-c3cccc(Nc4ccc(-c5cccnn5)cc4)c3)nc2cc1Cl",
    "viability at 48 h, 10 µM": "50 to 80%"
  },
  {
    "CHEMICAL STRUCTURE": "c1cc(Nc2ncc(-c3cccnn3)cn2)cc(-c2nc3ccccc3[nH]2)c1",
    "viability at 48 h, 10 µM": "50 to 80%"
  },
  {
    "CHEMICAL STRUCTURE": "FC(F)(F)Oc1ccc2nc(-c3cccc(Nc4ncc(-c5cccnn5)cn4)c3)[nH]c2c1",
    "viability at 48 h, 10 µM": "> 80%"
  }
]

Note to self: viability at 48 h, 10 µM recorded for Fc1ccc2nc(-c3cccc(Nc4ncc(-c5cccnn5)cn4)c3)[nH]c2c1 was > 80%

Note to self: viability at 48 h, 10 µM recorded for Fc1cc2[nH]c(-c3cccc(Nc4cnc(-c5ccccn5)cn4)c3)nc2cn1 was > 80%

Note to self: viability at 48 h, 10 µM recorded for Fc1cc2nc(-c3cccc(Nc4ncc(-c5cscn5)cn4)c3)[nH]c2cc1F was > 80%

---

experiment: Cell viability measurement (MTS), Vero cells; format: cell-based; settings: monkey, 10 μM
MEASURED ENDPOINT: viability at 48 h, 10 µM

[
  {
    "CHEMICAL STRUCTURE": "Fc1ccc2nc(-c3cccc(Nc4ccc(-c5cccnn5)cc4)c3)[nH]c2c1",
    "viability at 48 h, 10 µM": "> 80%"
  }
]

Note to self: viability at 48 h, 10 µM recorded for c1cncc(-c2ccc(Nc3cccc(-c4nc5ccccc5[nH]4)c3)cc2)c1 was 50 to 80%

Note to self: viability at 48 h, 10 µM recorded for c1cc(Nc2ccc(-c3cnccn3)cc2)cc(-c2nc3ccccc3[nH]2)c1 was 50 to 80%

Note to self: viability at 48 h, 10 µM recorded for Cc1cscc1-c1cnc(Nc2cccc(-c3nc4ccccc4[nH]3)c2)nc1 was > 80%

Note to self: viability at 48 h, 10 µM recorded for c1cc(Nc2ccc(-c3cccnn3)cc2)cc(-c2nc3ccccc3[nH]2)c1 was 50 to 80%

Note to self: viability at 48 h, 10 µM recorded for Fc1ccc2nc(-c3cccc(Nc4ncc(-c5ccccn5)cn4)c3)[nH]c2c1 was 50 to 80%

Note to self: viability at 48 h, 10 µM recorded for Fc1cccc(-c2ccc(Nc3cccc(-c4nc5ccc(C(F)(F)F)cc5[nH]4)c3)nc2)c1 was 50 to 80%

Note to self: viability at 48 h, 10 µM recorded for FC(F)(F)c1ccc2nc(-c3cccc(Nc4ccc(-c5ccccn5)cn4)c3)[nH]c2c1 was 50 to 80%

---

Molecular target: human ANO6 (variant 5) (Homo sapiens)
Construct: expressed in transfected cells; host or cells: Fisher rat thyroid (FRT) cells
Sequence (Q4KMQ2 1-931 isoform Q4KMQ2-2): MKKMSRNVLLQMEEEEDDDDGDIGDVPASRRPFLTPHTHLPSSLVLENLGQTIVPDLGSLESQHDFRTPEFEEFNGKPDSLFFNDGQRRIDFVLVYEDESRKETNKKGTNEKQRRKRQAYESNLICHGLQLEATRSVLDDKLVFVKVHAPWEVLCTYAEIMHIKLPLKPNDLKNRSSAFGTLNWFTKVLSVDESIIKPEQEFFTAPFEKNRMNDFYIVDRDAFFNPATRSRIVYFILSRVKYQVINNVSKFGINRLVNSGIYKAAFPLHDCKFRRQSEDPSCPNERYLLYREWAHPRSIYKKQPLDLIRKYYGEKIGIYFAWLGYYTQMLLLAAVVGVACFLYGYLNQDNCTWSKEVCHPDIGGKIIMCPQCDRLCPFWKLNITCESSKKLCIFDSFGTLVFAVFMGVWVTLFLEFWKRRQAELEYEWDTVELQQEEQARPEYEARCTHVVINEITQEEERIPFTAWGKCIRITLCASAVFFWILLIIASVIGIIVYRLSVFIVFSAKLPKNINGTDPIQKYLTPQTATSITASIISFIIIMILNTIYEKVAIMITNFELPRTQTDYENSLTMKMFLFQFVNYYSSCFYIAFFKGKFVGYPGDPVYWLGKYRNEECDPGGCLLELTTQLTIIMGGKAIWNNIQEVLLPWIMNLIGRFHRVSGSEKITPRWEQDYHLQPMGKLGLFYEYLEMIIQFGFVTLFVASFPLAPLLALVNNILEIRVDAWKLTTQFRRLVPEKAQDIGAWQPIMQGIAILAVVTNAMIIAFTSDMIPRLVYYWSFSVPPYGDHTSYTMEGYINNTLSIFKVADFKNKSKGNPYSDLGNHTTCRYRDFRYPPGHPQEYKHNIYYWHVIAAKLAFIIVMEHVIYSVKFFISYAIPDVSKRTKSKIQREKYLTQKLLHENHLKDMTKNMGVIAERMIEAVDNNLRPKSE
Assay: Lact C2 assay (phosphatidylserine externalization scramblase function)
Assay type: cell-based
Conditions: 50 nM; FRT cells expressing human ANO6; ionomycin 10 μM; read-out: % Inhibition (phosphatidylserine externalization inhibitory activity)
Items are presented alongside their recorded inhibition at 0.05 µM.

[
  {
    "CHEMICAL STRUCTURE": "Fc1ccc2nc(-c3cccc(Nc4cnc(-c5ccccn5)cn4)c3)[nH]c2c1",
    "RECORDED RESULT": "30 to 60%"
  },
  {
    "CHEMICAL STRUCTURE": "FC(F)Oc1cc2[nH]c(-c3cccc(Nc4ccc(-c5cccnn5)cc4)c3)nc2cn1",
    "RECORDED RESULT": "30 to 60%"
  },
  {
    "CHEMICAL STRUCTURE": "FC(F)Oc1cc2[nH]c(-c3cccc(Nc4cnc(-c5ccccn5)cn4)c3)nc2cn1",
    "RECORDED RESULT": "> 60%"
  },
  {
    "CHEMICAL STRUCTURE": "Fc1cc2nc(-c3cccc(Nc4ncc(-c5ccccn5)cn4)c3)[nH]c2cc1F",
    "RECORDED RESULT": "> 60%"
  },
  {
    "CHEMICAL STRUCTURE": "FC(F)Oc1cc2[nH]c(-c3cccc(Nc4ncc(-c5ccccn5)cn4)c3)nc2cn1",
    "RECORDED RESULT": "> 60%"
  }
]

Next:
Note to self: inhibition at 0.05 µM recorded for Fc1ccc2nc(-c3cccc(Nc4ncc(-c5cccnn5)cn4)c3)[nH]c2c1 was 30 to 60%
